- System: endogenous NAMPT in U2OS cells
- protocol_notes: Cellular NAD+ modulation assay (NAD/NADH-Glo, U2OS cells)
- Assay type: cell-based
- setup_conditions: Homo sapiens, 24 hours incubation, cellular NAD+
parameter_measured: EC50

[
  {
    "compound": "Cn1ncc(Cl)c1CC1c2cc(C3CCOCC3)ccc2C(=O)N1Cc1ccc2[nH]nnc2c1 (centres unmarked)",
    "EC50": "500 to 5000 nM"
  },
  {
    "compound": "Cc1nn(C)c(CC2c3ccccc3C(=O)N2Cc2ccc3[nH]nnc3c2)c1Cl (centres unmarked)",
    "EC50": "< 500 nM"
  },
  {
    "compound": "Cc1noc(Cl)c1CC1c2ccccc2C(=O)N1Cc1ccc2[nH]nnc2c1 (centres unmarked)",
    "EC50": "< 500 nM"
  }
]

Could I get EC50 for every one of these entries?
1. Cn1ncc(Cl)c1CC1c2cc(N3CCOCC3)ccc2C(=O)N1CC1CC2(CNC(=O)O2)C1 (centres unmarked)
2. Cn1ncc(Cl)c1CC1c2ccccc2C(=O)N1Cc1c[nH]c(=S)s1 (centres unmarked)
3. COCCOc1nn(C)c(CC2c3ccccc3C(=O)N2Cc2ccc3[nH]nnc3c2)c1Cl (centres unmarked)
4. O=C1c2ccccc2C(Cc2ncccc2Br)N1Cc1ccc2[nH]nnc2c1 (centres unmarked)

Out:
1: < 500 nM; 2: 500 to 5000 nM; 3: < 500 nM; 4: < 500 nM

----------
- study_system: human enzyme NAMPT (full length) (Homo sapiens)
- Construct: human enzyme NAMPT (full length)
- protocol_notes: NMN fluorescence biochemical assay (stimulation of NMN synthesis by NAMPT)
- setup_conditions: NMN synthesis by purified human NAMPT (100 nM); concentration giving half-maximal activation; read-out: Enzymatic EC50
pEC50: −log10 of the molar value.
parameter_measured: pEC50

// worked examples, pEC50 included
[
  {
    "compound": "O=C1c2ccccc2C(Cc2ccccc2F)N1Cc1ccc2[nH]c(=O)oc2c1 (stereo not drawn)",
    "pEC50": "> 6.30"
  },
  {
    "compound": "N#Cc1ccccc1CC1c2ccccc2C(=O)N1Cc1ccc(O)cc1 (stereo not drawn)",
    "pEC50": "> 6.30"
  },
  {
    "compound": "Cc1cccc2c1CN(Cc1ccc(O)cc1)C2=O",
    "pEC50": "5.30 to 6.30"
  },
  {
    "compound": "Cc1ccccc1CC1c2ccncc2C(=O)N1Cc1ccc2[nH]c(=O)oc2c1 (stereo not drawn)",
    "pEC50": "5.30 to 6.30"
  },
  {
    "compound": "N#Cc1ccc(Br)c(CC2c3ccccc3C(=O)N2Cc2ccc3[nH]c(=O)oc3c2)n1 (stereo not drawn)",
    "pEC50": "> 6.30"
  }
]

Could I get pEC50 for every one of these entries?
1. O=C1c2ccccc2C(Cc2ccc(F)cn2)N1Cc1ccc2[nH]c(=O)oc2c1 (stereo not drawn)
2. COc1ccc2c(c1)C(C)N(Cc1ccc3[nH]c(=O)oc3c1)C2=O (single isomer, unassigned)

Out:
5.30 to 6.30
≤ 5.30

----------
- study_system: human enzyme NAMPT (full length) (Homo sapiens)
- Construct: human enzyme NAMPT (full length)
- protocol_notes: NMN fluorescence biochemical assay (stimulation of NMN synthesis by NAMPT)
- setup_conditions: NMN fluorescence assay, purified human NAMPT 100 nM; concentration giving half-maximal activation; read-out: Enzymatic EC50
parameter_measured: EC50

[
  {
    "compound": "Cn1ncc(Cl)c1CC1(C)c2ccccc2C(=O)N1CC1CC2(CNC(=O)O2)C1 (centres unmarked)",
    "EC50": "≥ 5 µM"
  }
]

Could I get EC50 for every one of these entries?
1. Cn1c(CC2c3ccccc3C(=O)N2CC2CC3(CNC(=O)O3)C2)ccc(Cl)c1=O (centres unmarked)
2. Cn1ncc(Cl)c1CC1c2ccccc2C(=O)N1Cc1ccc(OC(F)F)cc1 (centres unmarked)
3. O=C1c2ccccc2C(Cc2nn(C3CNC3)cc2Cl)N1Cc1ccc2[nH]nnc2c1 (centres unmarked)
4. COCCOc1nn(C)c(CC2c3ccccc3C(=O)N2Cc2ccc3[nH]nnc3c2)c1Cl (centres unmarked)
5. COc1ccc(CN2C(=O)c3ccccc3C2Cc2c(C#N)ccnc2C#N)cn1 (centres unmarked)

Out:
1. ≥ 5 µM
2. ≥ 5 µM
3. < 0.5 µM
4. < 0.5 µM
5. 0.5 to 5 µM

----------
- study_system: human enzyme NAMPT (full length) (Homo sapiens, UniProt P43490)
- Construct: human enzyme NAMPT (full length)
- Sequence (P43490 whole entry): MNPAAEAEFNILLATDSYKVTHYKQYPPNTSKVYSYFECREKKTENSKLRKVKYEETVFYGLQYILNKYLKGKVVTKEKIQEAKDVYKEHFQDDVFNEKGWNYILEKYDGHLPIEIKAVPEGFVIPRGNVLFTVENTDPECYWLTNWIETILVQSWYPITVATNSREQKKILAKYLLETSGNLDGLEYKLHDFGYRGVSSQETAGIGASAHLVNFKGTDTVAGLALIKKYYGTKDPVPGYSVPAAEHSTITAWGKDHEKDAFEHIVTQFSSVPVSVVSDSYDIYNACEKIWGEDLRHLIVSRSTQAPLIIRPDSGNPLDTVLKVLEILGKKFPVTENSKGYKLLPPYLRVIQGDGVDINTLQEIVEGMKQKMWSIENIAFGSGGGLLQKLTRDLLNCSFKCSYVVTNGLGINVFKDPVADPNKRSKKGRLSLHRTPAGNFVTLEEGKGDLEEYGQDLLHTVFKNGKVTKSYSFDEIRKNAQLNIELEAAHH
- protocol_notes: NMN fluorescence biochemical assay (stimulation of NMN synthesis by NAMPT)
- setup_conditions: NMN fluorescence assay, purified human NAMPT 100 nM; concentration giving half-maximal activation; read-out: Enzymatic EC50
parameter_measured: EC50

// worked examples, EC50 included
[
  {
    "compound": "COc1cccc2c1C(=O)N(CC1CC3(CNC(=O)O3)C1)C2Cc1c(Cl)cnn1C (centres unmarked)",
    "study_system": "human enzyme NAMPT (full length) (Homo sapiens, UniProt P43490)",
    "EC50": "500 to 5000 nM"
  },
  {
    "compound": "CN(C)c1nn(C)c(CC2c3ccccc3C(=O)N2Cc2ccc3[nH]nnc3c2)c1Cl (centres unmarked)",
    "study_system": "human enzyme NAMPT (full length) (Homo sapiens, UniProt P43490)",
    "EC50": "< 500 nM"
  },
  {
    "compound": "COc1ccc(CN2C(Cc3c(Cl)cnn3C)c3ccccc3S2(=O)=O)cn1 (centres unmarked)",
    "study_system": "human enzyme NAMPT (full length) (Homo sapiens, UniProt P43490)",
    "EC50": "≥ 5000 nM"
  },
  {
    "compound": "O=C1NCC2(CC(CN3C(=O)c4ccccc4C3Cc3nnn(C4CC4)c3Cl)C2)O1 (centres unmarked)",
    "study_system": "human enzyme NAMPT (full length) (Homo sapiens, UniProt P43490)",
    "EC50": "500 to 5000 nM"
  },
  {
    "compound": "Cn1ncc(Cl)c1CC1c2cc(OC(F)F)ccc2C(=O)N1CC1CC2(CNC(=O)O2)C1 (centres unmarked)",
    "study_system": "human enzyme NAMPT (full length) (Homo sapiens, UniProt P43490)",
    "EC50": "500 to 5000 nM"
  }
]

Could I get EC50 for every one of these entries?
1. Cn1ncc(Cl)c1CC1c2cc(Br)ccc2C(=O)N1Cc1ccc2[nH]nnc2c1 (centres unmarked)
2. COc1ccc(CN2C(=O)c3ccccc3C2Cc2c(Cl)cnn2C)cc1Cl (centres unmarked)
3. Cc1cnn(C)c1CC1c2ccccc2C(=O)N1Cc1ccc2[nH]nnc2c1 (centres unmarked)
4. Cn1ncc(Cl)c1CC1c2cc(Cl)ccc2C(=O)N1Cc1ccc2[nH]nnc2c1 (centres unmarked)
5. Cn1ncc(Cl)c1CC1c2cc(C3COC3)ccc2C(=O)N1CC1CC2(CNC(=O)O2)C1 (centres unmarked)
6. Cc1ccnc(C(C)(C)O)c1CC1c2ccccc2C(=O)N1Cc1ccc2[nH]nnc2c1 (centres unmarked)

Out:
1: < 500 nM; 2: 500 to 5000 nM; 3: 500 to 5000 nM; 4: < 500 nM; 5: 500 to 5000 nM; 6: < 500 nM

----------
- study_system: human enzyme NAMPT (full length) (Homo sapiens, UniProt P43490)
- Construct: human enzyme NAMPT (full length)
- protocol_notes: NMN fluorescence biochemical assay (stimulation of NMN synthesis by NAMPT)
- setup_conditions: fold change of maximal activation compared to DMSO
- Procedure: Certain compounds described herein were assayed for their ability to stimulate the synthesis of nicotinamide mononucleotide (NMN) by human enzyme NAMPT (full length). […] Fluorescence (Ex/Em=382/445 nm) was measured using an Envision plate reader. The potency measurements for the test compounds were quantified and represented as EC50 (concentration of a compound that gives half-maximal activation) and Emax (fold change of a compound's maximal activation compared to DMSO).
parameter_measured: Enzymatic Emax

// worked examples, Enzymatic Emax included
[
  {
    "compound": "O=C1c2ccccc2C(Cc2ncccc2Br)N1C/C=C/c1c[nH]nn1 (stereo not shown)",
    "experimental_result": "B (3≥B>2)"
  },
  {
    "compound": "Cn1ncc(Cl)c1CC1c2cc(N3CCOCC3)ccc2C(=O)N1Cc1ccc2[nH]nnc2c1 (stereo not shown)",
    "experimental_result": "A (A>3)"
  },
  {
    "compound": "O=C1c2ccccc2C(Cc2nnc(Cl)cc2Cl)N1Cc1ccc2[nH]c(=O)oc2c1 (stereo not shown)",
    "experimental_result": "A (A>3)"
  },
  {
    "compound": "CC1c2cc(C3CC3)ccc2C(=O)N1Cc1ccc2[nH]c(=O)oc2c1 (stereo not shown)",
    "experimental_result": "A (A>3)"
  },
  {
    "compound": "COc1ccc(CN2C(=O)c3ccc(C4CC4)cc3C2Cc2c(C)ncnc2C#N)cc1 (stereo not shown)",
    "experimental_result": "A (A>3)"
  },
  {
    "compound": "O=C1c2ccc(Nc3ccccc3)cc2C(=O)N1Cc1ccc(O)cc1",
    "experimental_result": "B (3≥B>2)"
  },
  {
    "compound": "COCCOc1nn(C)c(CC2c3ccccc3C(=O)N2Cc2ccc3[nH]nnc3c2)c1Cl (stereo not shown)",
    "experimental_result": "B (3≥B>2)"
  },
  {
    "compound": "CC(C)(O)Cn1cc(Cl)c(CC2c3ccccc3C(=O)N2Cc2ccc3[nH]nnc3c2)n1 (stereo not shown)",
    "experimental_result": "B (3≥B>2)"
  }
]

Could I get Enzymatic Emax for every one of these entries?
1. N#Cc1cncc(C#N)c1CC1c2ccccc2C(=O)N1Cc1ccc2[nH]c(=O)oc2c1 (stereo not shown)
2. Cn1ncc(Cl)c1CC1c2cc(C3CN(C(=O)OC(C)(C)C)C3)ccc2C(=O)N1CC1CC2(CNC(=O)O2)C1 (stereo not shown)
3. Cc1cnn(C)c1CC1c2ccccc2C(=O)N1Cc1ccc2[nH]nnc2c1 (stereo not shown)
4. Cn1ncc(Cl)c1CC1c2cc(Br)ccc2C(=O)N1Cc1ccc2[nH]nnc2c1 (stereo not shown)

Out:
1: A (A>3); 2: A (A>3); 3: B (3≥B>2); 4: A (A>3)
